Origin of values: patent US20210238260

For each of the proteins below, state its KM (FX activation by FIXa in the Xase complex with FVIIIa, PC/PS vesicles and Ca2+).
- target-desc: Factor X (FX), P00742
- Sequence (P00742 whole entry, looked up): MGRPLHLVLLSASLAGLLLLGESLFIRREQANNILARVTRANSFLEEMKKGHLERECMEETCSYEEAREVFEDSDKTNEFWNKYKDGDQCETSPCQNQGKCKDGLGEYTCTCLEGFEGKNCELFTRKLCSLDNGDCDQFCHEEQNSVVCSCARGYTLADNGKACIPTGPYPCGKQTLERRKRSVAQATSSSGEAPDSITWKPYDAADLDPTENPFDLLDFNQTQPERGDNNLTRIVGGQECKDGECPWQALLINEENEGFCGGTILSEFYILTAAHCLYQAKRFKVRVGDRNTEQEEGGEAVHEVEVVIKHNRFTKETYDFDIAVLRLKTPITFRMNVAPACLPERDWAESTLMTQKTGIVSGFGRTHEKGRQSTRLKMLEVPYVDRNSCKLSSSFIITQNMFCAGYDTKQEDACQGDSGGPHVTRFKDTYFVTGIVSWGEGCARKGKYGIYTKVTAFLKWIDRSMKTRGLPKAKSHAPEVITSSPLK
// note: answer is a bare numeric in µM

Entry FIXa K228N/K247N/N249S/R318Y/R338E/R403E/E410N (protein) chain 1: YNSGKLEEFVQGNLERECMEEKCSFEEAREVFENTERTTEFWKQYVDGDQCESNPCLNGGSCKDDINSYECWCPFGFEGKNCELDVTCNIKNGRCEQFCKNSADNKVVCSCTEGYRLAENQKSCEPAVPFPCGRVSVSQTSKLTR chain 2: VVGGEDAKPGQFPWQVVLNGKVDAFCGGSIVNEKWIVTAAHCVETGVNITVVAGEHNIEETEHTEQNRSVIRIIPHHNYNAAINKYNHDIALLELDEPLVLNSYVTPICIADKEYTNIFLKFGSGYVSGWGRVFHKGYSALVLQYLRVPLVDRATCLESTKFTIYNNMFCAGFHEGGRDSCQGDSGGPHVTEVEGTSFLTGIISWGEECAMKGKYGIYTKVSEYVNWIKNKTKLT — recorded KM (FX activation by FIXa in the Xase complex with FVIIIa, PC/PS vesicles and Ca2+) = 0.0497

Entry FIXa K247N/N249S/R318Y/R338E/R403E/E410N (protein) chain 1: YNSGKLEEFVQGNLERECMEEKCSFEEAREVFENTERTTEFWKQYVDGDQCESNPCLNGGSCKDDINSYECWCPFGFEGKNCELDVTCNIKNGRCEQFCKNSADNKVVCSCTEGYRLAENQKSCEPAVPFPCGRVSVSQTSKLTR chain 2: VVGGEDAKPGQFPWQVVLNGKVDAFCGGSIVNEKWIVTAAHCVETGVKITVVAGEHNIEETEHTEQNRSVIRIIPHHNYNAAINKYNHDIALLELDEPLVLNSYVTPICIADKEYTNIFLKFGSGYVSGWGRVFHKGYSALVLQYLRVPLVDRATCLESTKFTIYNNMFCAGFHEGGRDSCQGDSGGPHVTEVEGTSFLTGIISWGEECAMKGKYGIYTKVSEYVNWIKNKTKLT — recorded KM (FX activation by FIXa in the Xase complex with FVIIIa, PC/PS vesicles and Ca2+) = 0.0392

Entry FIXa Y155F/I251S/R318Y/R338E/R403E/E410N (protein) chain 1: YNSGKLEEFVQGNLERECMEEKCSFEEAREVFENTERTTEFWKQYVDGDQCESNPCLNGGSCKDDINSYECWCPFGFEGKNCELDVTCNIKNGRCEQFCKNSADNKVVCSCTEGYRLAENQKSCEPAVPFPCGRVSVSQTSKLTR chain 2: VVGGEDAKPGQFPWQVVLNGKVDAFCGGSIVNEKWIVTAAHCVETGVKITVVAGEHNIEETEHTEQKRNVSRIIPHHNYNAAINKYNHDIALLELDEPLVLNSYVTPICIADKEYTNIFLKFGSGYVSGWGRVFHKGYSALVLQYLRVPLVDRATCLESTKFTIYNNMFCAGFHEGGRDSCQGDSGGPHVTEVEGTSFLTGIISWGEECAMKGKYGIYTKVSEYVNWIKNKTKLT — recorded KM (FX activation by FIXa in the Xase complex with FVIIIa, PC/PS vesicles and Ca2+) = 0.0433

Entry FIXa K228N/K247N/N249S (protein) chain 1: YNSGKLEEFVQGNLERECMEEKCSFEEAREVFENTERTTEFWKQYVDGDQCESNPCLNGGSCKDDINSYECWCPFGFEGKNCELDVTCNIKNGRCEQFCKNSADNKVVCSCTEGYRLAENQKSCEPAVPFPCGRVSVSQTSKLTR chain 2: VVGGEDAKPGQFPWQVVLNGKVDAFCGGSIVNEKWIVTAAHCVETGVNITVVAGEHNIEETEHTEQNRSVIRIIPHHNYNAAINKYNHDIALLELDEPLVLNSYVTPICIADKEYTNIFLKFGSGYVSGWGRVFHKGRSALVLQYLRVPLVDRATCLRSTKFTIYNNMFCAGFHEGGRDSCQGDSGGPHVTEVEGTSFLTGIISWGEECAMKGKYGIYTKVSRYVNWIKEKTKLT — recorded KM (FX activation by FIXa in the Xase complex with FVIIIa, PC/PS vesicles and Ca2+) = 0.0945
